System: HL-60
measurement description: NCI tumour cell line growth inhibition, 48 h
Activity calls are given as the source filed them. No stated cut-off is given here; in the data, active = GI50 up to about 1.1 µM and inactive = higher.
Outcome codes: label 1 = active, label 0 = inactive

>>> answer_label("O=C(CO)C1CC2C=CC1C2 (stereo unspecified)")
"label 0"
>>> answer_label("CC1(C)CCC2=C(O1)c1ccccc1/C(=N/c1ccc([N+](=O)[O-])cc1)C2=O")
"label 1"
>>> answer_label("O=C1[C@H](Cl)[C@H]2c3cc4ccccc4nc3Oc3ccccc3N12")
"label 0"
>>> answer_label("C=CCN1C[C@H](C)N([C@H](c2ccc(C(=O)NC(CC)CC)cc2)c2cccc(OC)c2)C[C@H]1C")
"label 0"
>>> answer_label("CC(=O)OCc1cc2c(s1)C(=O)c1sccc1C2=O")
"label 1"
>>> answer_label("Cc1ccc(S(=O)(=O)NC(=O)NS(=O)(=O)O)cc1")
"label 0"
>>> answer_label("CCN(CC)/C(=C\\Cl)Nc1ccccn1.[O-][Cl+3]([O-])([O-])O")
"label 0"
>>> answer_label("CN(C)CCC(C(=O)C(C)(C)C)c1ccccn1 (stereo unspecified)")
"label 0"
>>> answer_label("CC(C)Cn1cnc2c(Sc3c([N+](=O)[O-])ncn3C)nc(N)nc21")
"label 0"
>>> answer_label("O=C1CC(c2cccc(Br)c2)n2cccc21 (stereo unspecified)")
"label 0"
>>> answer_label("CC(C)=CCC[C@@H](C)C1=C(O)C(=O)C(C)=C(Nc2ccccc2F)C1=O")
"label 0"
